Source listed as ChEMBL document CHEMBL2407071.

testSystem: Amine oxidase [flavin-containing] B (Homo sapiens, UniProt P27338)
Sequence (P27338 whole entry): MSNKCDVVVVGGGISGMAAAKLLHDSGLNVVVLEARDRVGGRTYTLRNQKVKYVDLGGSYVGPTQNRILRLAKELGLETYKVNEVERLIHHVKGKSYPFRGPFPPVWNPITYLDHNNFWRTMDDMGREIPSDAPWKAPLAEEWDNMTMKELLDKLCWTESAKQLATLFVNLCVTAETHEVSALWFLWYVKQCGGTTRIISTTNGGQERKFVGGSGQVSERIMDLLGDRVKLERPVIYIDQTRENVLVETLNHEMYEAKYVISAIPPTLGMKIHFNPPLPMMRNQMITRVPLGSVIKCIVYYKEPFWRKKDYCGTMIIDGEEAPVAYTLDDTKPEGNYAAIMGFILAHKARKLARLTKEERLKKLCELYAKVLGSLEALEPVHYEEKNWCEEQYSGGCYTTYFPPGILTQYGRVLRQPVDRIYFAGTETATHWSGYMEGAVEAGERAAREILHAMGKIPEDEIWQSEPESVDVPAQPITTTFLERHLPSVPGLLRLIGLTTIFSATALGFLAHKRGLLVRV
protocolNotes: Inhibition of recombinant human MAO-B assessed as oxidation of kynuramine to 4-hydroxyquinoline after 20 mins by spectrofluorometric analysis
conditionContext: read-out: IC50
IC50 less than 70 nM is class 1; IC50 greater than or equal to 70 nM is class 0.

For this molecule, is IC50 lower than 70 nM? C/C(=N\Nc1nc(-c2ccccc2)cs1)c1ccccn1
class 0

Is IC50 of C/C(=N/Nc1nc(-c2ccccc2)cs1)c1ccncc1 strictly below 70 nM?
class 1

Check if IC50 falls below 70 nM for C/C(=N\Nc1nc(C)cs1)c1cccnc1 .
class 0

Hello, I'm reviewing records and need to know if IC50 of CCOC(=O)c1csc(N/N=C(\C)c2ccncc2)n1 is below 70 nM. Could you check?
class 0

Find out if reported IC50 for CCOC(=O)c1csc(N/N=C(\C)c2cccnc2)n1 is less than 70 nM
class 0

Regarding C/C(=N\Nc1nc(-c2ccccc2)cs1)c1cccnc1 , kindly confirm whether its IC50 is beneath 70 nM.
class 0
